- TARGET OR SYSTEM: T1, HLA-A2/E6 (29-38) tetramer (human; HPV 16)
- T1 construct: also called E6(29-38) peptide-MHC tetramer; E6(29-38)-loaded tetramer
- METHOD NOTES: tetramer flow cytometry; transfected Jurkat-derived cells, CD8+ population
TEST READOUT: % cells in E6 tet-/CD8+ quadrant
# number then unit; no other words

response.value for TCR 21 (codon optimized, cysteine modified version) (TCR, V domains shown) V domain 1: AQKITQTQPGMFVQEKEAVTLDCTYDTSDQSYGLFWYKQPSSGEMIFLIYQGSYDEQNATEGRYSLNFQKARKSANLVISASQLGDSAMYFCAMREGRVTGGGNKLTFGTGTQLKVEL V domain 2: NAGVTQTPKFQVLKTGQSMTLQCAQDMNHNSMYWYRQDPGMGLRLIYYSASEGTTDKGEVPNGYNVSRLNKREFSLRLESAAPSQTSVYFCASRPWGNQNTEAFFGQGTRLTVVE (field: % cells in E6 tet-/CD8+ quadrant) = 46%
